B1: glmS ribozyme (parent)
chain: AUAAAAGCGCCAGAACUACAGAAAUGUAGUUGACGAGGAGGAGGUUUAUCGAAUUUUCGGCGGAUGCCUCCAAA

Variants of: B1
PROCEDURE TEXT: self-cleavage kobs at 10000 uM GlcN6P; higher = faster cleavage; RNA array
SETUP CONDITIONS: with glucosamine-6-phosphate
This sample holds only a part of the variants without activity.
Field: self-cleavage kobs at 10000 uM GlcN6P. Provide a value for each of the variants that follow.
Please reply with the bare figure in s⁻¹ and do not write the unit itself.

Q) Given the entry C67U , report its measured self-cleavage kobs at 10000 uM GlcN6P.
A) 0.0215

Q) Field entry: G29C U54C
A) 0.0019

Q) Subsequent entry: C16G G32U G66A
A) 0.000209

Q) // next record A33U U45A U46G
A) 0.000433

Q) Similarly, G37A U46G ?
A) 0.000421

Q) Also check A12C A64G
A) 0.000415

Q) Now give it for A53U G59U too.
A) 4.13e-05

Q) Try C11U U69A next.
A) 6.31e-05

Q) Here is the next variant: A14G U47C U56G
A) 0.0112

Q) Okay, and U46A A48G ?
A) 3.66e-05

Q) One more variant: A39U A48U
A) 0.000257

Q) And G41C G66A ?
A) 0.000851

Q) Would you mind doing G13U A39G U55G as well?
A) 0.0028

Q) Another variant to look at: C16A G29C
A) 0.00391

Q) Also need G41A U46G , thanks.
A) 0.000747

Source of measurements: the supplement of paper PMC7125110
